Tested on: OVCAR-4 ovarian
ASSAY REMARKS: NCI-60 one-dose screen, 48 h (100 = growth as untreated, 0 = no growth, -100 = all killed)
RUN PARAMETERS: 10 µM unless noted
Compounds without any hit were thinned out: in the full panel of roughly 83,000, 20% have a hit.
REPORTED ENDPOINT: growth (%)
Give the value, in units of %, as a plain number.

Field: example entries. Status: answers known.
COMPOUND: O=C(N/N=C/c1ccc(Cl)cc1)c1ccc(NC(=O)c2ccccn2)cc1
U: %
growth: -77.6

COMPOUND: COc1cc(/C=N/NC(=O)c2ccc(-n3cc(-c4ccccc4)nn3)cc2)cc(OC)c1OC
U: %
growth: 45.8

COMPOUND: COC1C(O)CC(OC2CC(OC3CC(O[C@@H]4C(=O)c5c(cc6cc(OC7CC(OC8CC(O)C(O)C(C)O8)C(O)C(C)O7)c(C)c(O)c6c5O)CC4[C@H](OC)[C@@H](O)C(C)=O)OC(C)C3O)OC(C)C2O)OC1C (some centres not stated)
U: %
growth: 16.9

Query block: Sample `CN(C)CCn1c(=O)c2ccccc2n2nc3ccccc3c12` — what was its growth?
Result block: 83.9

Query block: Find the recorded growth belonging to `Cc1cc(O)c(=O)cc2c1C[C@H]1CC(C)(C)/C=C/C[C@]3(C)Oc4cc(=O)c(O)cc(C)c4C[C@H]3C[C@H](O)[C@@]1(C)O2` and report it.
Result block: 9.54

Query block: Which growth is listed for `CCN1C2CCC1/C(=C\c1ccccc1)C(=O)/C2=C/c1ccccc1` ?
Result block: 46.1

Query block: I'd like to know its growth. The compound in question is `CCN1CCN(CCNc2nccc(-c3c(-c4ccc(F)c(O)c4)nc4occn34)n2)S1(=O)=O`
Result block: 19.8

Query block: Quick one: growth of CCOC(=O)c1cnn(CC(C)O)c1NC(=O)NCc1ccccc1C(F)(F)F (configuration not stated) ?
Result block: 98.6

Query block: I am curious: what growth value has been reported for `COc1cc(/C=C/c2cn[nH]c2-c2ccc(C)cc2)cc(OC)c1OC` ?
Result block: 78.5

Query block: Give its growth value. Item: `Cc1ccc(-c2csc(NC(=O)CSc3nc(N)cc(N)n3)n2)cc1`
Result block: 64

Query block: What value of growth has been reported for the following compound? `O=C(/C=C/c1cccc(Oc2ccccc2)c1)c1ccc(Nc2nc(Nc3ccc(F)cc3)nc(Nc3ccc(Cl)cc3)n2)cc1`
Result block: 97.9

Query block: Endpoint output: growth of O=C(c1ccc(Br)cc1)C(Br)C(c1ccc(Cl)cc1)C(c1ccccc1)[N+](=O)[O-] (configuration not stated) . Value?
Result block: 81.4

Query block: Can you look up the measured growth of `N=C(N)c1ccc(OCCSCCOc2ccc(C(=N)N)cc2)cc1` for me?
Result block: 64.7

Query block: Return reported growth; argument: CCn1cc(C(=O)N/N=C/c2ccccc2)c(=O)c2cc(F)c(N3CCNC(C)C3)c(F)c21 (configuration not stated)
Result block: 70.7

Query block: Consider the compound `CC(C)c1ccc2c(c1)CC[C@H]1[C@](C)(C(=O)OCC#CCN3CCCC3)CCC[C@]21C` and give its measured growth.
Result block: 64.4

Query block: Form field: reported growth of `C=C(C)[C@@H]1CC[C@]2(C(=O)Nc3ccccn3)CC[C@]3(C)[C@H](CC[C@@H]4[C@@]5(C)CCCNC(C)(C)[C@@H]5CC[C@]43C)[C@@H]12`
Result block: 8.81

Query block: Suppose we examine the compound `CCOC(=O)c1nnn(-c2no[n+]([O-])c2-c2ccc(OC)cc2)c1COc1cccc2cccnc12` ; what growth value has been reported?
Result block: 27

----------
Test system: LOX IMVI melanoma
ASSAY REMARKS: NCI-60 one-dose screen, 48 h (100 = growth as untreated, 0 = no growth, -100 = all killed)
RUN PARAMETERS: 10 µM unless noted
This is part of a sample that, as a whole, favours compounds with a hit. Of some 83,000 tested, about 20% had one in any assay.
Doc: threshold 80% (exclusive). Items with growth beneath it return 1 (yes); others return 0 (no).

Would you please look over these solved cases?
COMPOUND: COc1ccc(C2[C@@H](Cl)C(=O)N2c2cc(OC)c(OC)c(OC)c2)cc1Cl (stereo not given in full)
ASSIGNED CATEGORY: 1 (yes)

COMPOUND: COc1cc(Cc2cc(-c3ccccc3)nn(Cc3ccccc3)c2=O)cc(OC)c1OC
ASSIGNED CATEGORY: 1 (yes)

COMPOUND: Cn1cc(-c2nonc2-c2c[nH]c3ccccc23)c2cc(Br)ccc21
ASSIGNED CATEGORY: 1 (yes)

COMPOUND: O=C(NCCN1CCOCC1)OCc1ccc2c(Cl)cc(Cl)c(O)c2n1
ASSIGNED CATEGORY: 1 (yes)

COMPOUND: COc1cc(C=C2C(=O)NC(=S)NC2=O)cc(CN2CCCC2)c1O
ASSIGNED CATEGORY: 0 (no)

Query block: Quick check: does `COc1ccc(C=Nc2c(C(=O)Nc3cccc(Cl)c3C)sc3nc(C)c(C(=O)/C=C/c4ccc(OC)cc4)cc23)cc1` have growth under 80%?
Result block: 1 (yes)

Query block: Is it true that growth reported for `N#Cc1c(-c2ccccc2)nc2c(c(-c3ccccc3)nn2-c2ccccc2)c1-c1ccc(N2CCCCC2)cc1` is less than 80%?
Result block: 0 (no)

Query block: I wonder whether `COc1ccc(-c2cc(-c3cc(OC)ccc3OC)nc(SCC(C)=O)c2C#N)cc1` has growth below 80%. Can you tell?
Result block: 1 (yes)

Query block: Strictly below 80% in growth? `CN(C)c1ccc(CNCCO)cc1`
Result block: 0 (no)

----------
System: RXF 393 renal
ASSAY REMARKS: NCI-60 one-dose screen, 48 h
RUN PARAMETERS: 10 µM unless noted
Compounds without any hit were thinned out: in the full panel of roughly 83,000, 20% have a hit. Calls of active or inactive are those of the source. How the source made its calls: active means growth percent below 10; inactive means the rest.
Pick one: T for active, F for inactive

Here are 8 compounds together with their reported answers.
SMILES: C=C1C(=O)O[C@H]2[C@H]1CC/C(CNC(=O)Cc1c[nH]c3ccccc13)=C\CC[C@@]1(C)O[C@@H]21
TESTED TARGET: RXF 393 renal
ASSIGNED CATEGORY: T

SMILES: O=[N+]([O-])c1c(O)c(Cl)cc(Cl)c1Cl
TESTED TARGET: RXF 393 renal
ASSIGNED CATEGORY: F

SMILES: O=C(Cc1ccc(/C=C/C(=O)c2ncc[nH]2)cc1)Nc1cc(F)c(F)c(F)c1
TESTED TARGET: RXF 393 renal
ASSIGNED CATEGORY: F

SMILES: CC1=C2CC/C(C)=C/CC[C@]3(C)O[C@H]3CC/C(C)=C/[C@H]2OC1
TESTED TARGET: RXF 393 renal
ASSIGNED CATEGORY: F

SMILES: CCCCCCCCn1ccc2cc(NC(=O)CN3CCN(c4cc(C)nc(Cl)n4)CC3)ccc21
TESTED TARGET: RXF 393 renal
ASSIGNED CATEGORY: F

SMILES: Cc1ccc2nc(-c3ccc(C(=O)N/N=C/c4ccc([N+](=O)[O-])cc4)cc3)[nH]c2c1
TESTED TARGET: RXF 393 renal
ASSIGNED CATEGORY: F

SMILES: COc1cc2c3c(c4c5ccccc5[nH]c4c2c(OC)c1OC)C(=O)N(CCN1CCCCC1)C3=O
TESTED TARGET: RXF 393 renal
ASSIGNED CATEGORY: T

SMILES: COc1ccc(Nc2ncc(I)c(NCCCNC(=O)C3CCC3)n2)cc1
TESTED TARGET: RXF 393 renal
ASSIGNED CATEGORY: T

# evaluate next
Query block: What is the recorded call for this compound in the test? `CNCCCNc1nc2ccccc2c2c(=O)c3cc(Cl)ccc3sc12`
Result block: F

----------
System: BT-549 breast
ASSAY REMARKS: NCI-60 one-dose screen, 48 h (100 = growth as untreated, 0 = no growth, -100 = all killed)
RUN PARAMETERS: 10 µM unless noted
This is part of a sample that, as a whole, favours compounds with a hit. Of some 83,000 tested, about 20% had one in any assay. The source made the active and inactive calls. How the source made its calls: active means growth percent below 10; inactive means the rest.
We begin with a simple list: items and their reported growth.

Examples with answers:
SMILES: O=C1C(Cl)=C(Nc2ccccc2)C(=O)c2ccccc21
growth: -94.7% (active)
--
SMILES: CS(=O)(=O)Nc1cc(-c2ccc3ncnc(Nc4ccc5c(cnn5Cc5ccncc5)c4)c3c2)cnc1Cl
growth: 16.1% (inactive)
--
SMILES: c1ccc(-c2nc3ccccc3[nH]2)c(OCCCCCOc2ccccc2-c2nc3ccccc3[nH]2)c1
growth: 88.5% (inactive)
--
SMILES: N=C(N)c1ccc(-c2ccc(-c3cc(Cl)cc(Cl)c3)s2)s1
growth: 87.8% (inactive)

Moving on to the next compound.
Query block: Which measured growth value corresponds to `N#Cc1ccc(/C=C/c2cn(-c3ccccc3)nc2-c2cccc([N+](=O)[O-])c2)cc1` ?
Result block: 40.5% (inactive)
